# Experiment summary: luciferase reporter signal suppression in cells – H4 neuroglioma cells, luminescence, dose response (AID 1990)
# Assay type: functional, cell-based
The source made the active and inactive calls.
Recorded metric: EC50

# example entries with known answers
Cc1cc(C(=O)CN2C(=O)c3ccccc3S2(=O)=O)c(C)n1-c1ccccc1    7.71 µM (active)
COc1ccc(-n2nnnc2-c2cccc(OC)c2)cc1    4.68 µM (inconclusive)
CCCOc1ccc2cc(-c3ccccn3)c(=O)oc2c1    2.91 µM (active)
COc1ccc(OC)c2sc(N(CCN(C)C)C(=O)/C=C/c3cccs3)nc12    8.13 µM (active)
O=C(Nc1cccc(-c2nc3ccccc3o2)c1)c1ccc(N2C(=O)C3C4C=CC(C4)C3C2=O)cc1 (stereo not drawn)    10.5 µM (active)
Brc1ccc2c(c1)OCCOCCOc1cc(Br)ccc1OCCOCCOCCO2    14.1 µM (active)
O=C(NCCCN1CCOCC1)C(=O)N/N=C/c1c2ccccc2cc2ccccc12    12.2 µM (active)

Now consider a different molecule.
Which EC50 value belongs to `COC(=O)c1cc(NC(=O)c2c(Cl)nc3sccn23)cc(C(=O)OC)c1` ?
12.3 µM (active)

###

# Test system: P388/ADR
# Experiment summary: cells
# Assay type: functional
# Condition label: Mus musculus
Activity calls are given as the source filed them.
Recorded metric: GI50

Some solved cases for reference:
NC(CN(O)N=O)C(=O)O (centres undefined)    8.45 µM (inactive)
C=C1CC(OC)(C(O)C(=O)N[C@H]2OCO[C@H]3C2O[C@H](C[C@@H](COC)OC)C(C)(C)C3OC)O[C@H](C)[C@@H]1C (some centres undefined)    < 0.00482 µM (active)
CO[C@@]12[C@H](COC(N)=O)C3=C(C(=O)C(C)=C(N)C3=O)N1C[C@H]1[C@@H]2N1C (some centres undefined)    7.74 µM (inactive)

Reported GI50, compound COc1ccc(C2CC(c3sc(Nc4ccc(C)cc4)nc3C)=NN2)cc1 (centres undefined) : ____
4.99 µM (inactive)

###

# Tested on: Streptococcus
# Experiment summary: GAS UMAA2166 growth inhibition – luminescence, BacTiterGlo, counter-screen for streptokinase expression inhibitor project, dose response (AID 1915);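 also: potency for reduction of bacterial viability or growth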
# Type: functional, organism-based
The source made the active and inactive calls.
Provide the recorded EC50 for the entries that follow.

Worked cases, answers included:
Cc1cccc(NC(=O)NCc2ccc3c(c2)OCO3)c1    > 150 µM (not active)
CCOC(=O)N1CCN(C(=O)c2cc3n(n2)C(C(F)(F)F)CC(c2ccc4c(c2)OCO4)N3)CC1 (stereo not given)    > 150 µM (not active)

The following compounds each have a reported value; give each one's EC50.
1. Cc1cc(C)c2ccc(NN)nc2c1O
2. CO/C(O)=C1\C(C)=NC2=C(C(=O)c3ccccc32)C1c1ccc(-c2ccc(C(=O)O)cc2)o1 (stereo not given)
3. Cc1[nH]c2ccccc2c1C(=O)COC(=O)c1ccc2c(=O)n3c(nc2c1)CCC3

6.5 µM (active)
69 µM (active)
1.99 µM (active)

###

# Experiment summary: Luminescence Cell-Based Dose Response HTS to Identify Inhibitors of 5'UTR Stem-Loop Driven Prion Protein mRNA Translation in H4 Neuroglioblastoma Cells. [Related pubchem assays: 1827 (Project Summary), 1813 (Primary HTS)]
# Format: functional
Calls of active or inactive are those of the source.
Provide the reported EC50 of each item.

Example entries and their recorded answers appear below.
COc1ccc(-n2nnnc2-c2cccc(OC)c2)cc1    11.6 µM (active)
O=C(NCCCN1CCOCC1)C(=O)N/N=C/c1c2ccccc2cc2ccccc12    13.9 µM (active)
C/C=C(/C)C(=O)Nc1cccc(C2=NOC3(C2)C[C@H](C(N)=O)N(C(=O)COc2ccc(Cl)cc2)C3)c1 (stereo partly specified)    87.6 µM (active)
COC(=O)c1cc(NC(=O)c2c(Cl)nc3sccn23)cc(C(=O)OC)c1    10.6 µM (active)
Cc1cc(C(=O)CN2C(=O)c3ccccc3S2(=O)=O)c(C)n1-c1ccccc1    9.5 µM (active)

Next:
For the compound shown here, CC(=O)OC(C)(C)/C=C/C(=O)C(C)(O)C1[C@H](O)C[C@@]2(C)C3CC=C4C(CC[C@@H](O)C4(C)C)[C@]3(CO)C(=O)C[C@]12C (stereo partly specified) , give the reported EC50.
< 0.1 µM (active)
